molecular target: GOPC, Q9HD26; assay: holdup assay; set-up: key: below the threshold = too weak to quantify, mostly under pKd 3.1 to 4; settings: plain residues with an end cap or a label only (N-terminal biotin on a linker: ahx)
measuredAttribute: pKd
Answers are plain numbers.

binder: GYDWGPATDL [TJP3, O95049]
measuredAttribute: pKd
measuredResult: 3.93

Would you mind listing pKd for each of the following binders?
1. HNAFLSVTTV [PDZRN4, Q6ZMN7]
2. TVICWPGSLV [LNX2, Q8N448]
3. RRRKRKRTYL [HPV49-L2, P36762]

[3.6, 4.33, 4.3]
